target of assay: T1, human plasma-derived vWF (human, UniProt P04275 764-2813)
T1 construct: mature; also called plasma-derived purified vWF; von Willebrand factor
method: ELISA, GF coated 50 nM, vWF 1 µg/mL
parameter measured: binding result

Please review the following examples before continuing.
- binder: "neurotrophin (NT)-3 (ligand, UniProt P20783 139-257, looked up, mature; Purchased in mature form) YAEHKSHRGEYSVCDSESLWVTDKSSAIDIRGHQVTVLGEIKTGNSPVKQYFYETRCKEARPVKNGCRGIDDKHWNSQCKTSQTYVRALTSENNKLVGWRWIRIDTSCVCALSRKIGRT"
  value: "binds"
- binder: "vascular endothelial growth factor (VEGF)-A121 (ligand, human, UniProt P15692-9 27-147, looked up, mature; Purchased in mature form, not glycosylated) APMAEGGGQNHHEVVKFMDVYQRSYCHPIETLVDIFQEYPDEIEYIFKPSCVPLMRCGGCCNDEGLECVPTEESNITMQIMRIKPHQGQHIGEMSFLQHNKCECRPKKDRARQEKCDKPRR"
  value: "no binding"
- binder: "placental growth factor (PlGF)-2 (ligand, human, UniProt P49763-3 19-170, looked up, mature; Purchased in mature form) LPAVPPQQWALSAGNGSSEVEVVPFQEVWGRSYCRALERLVDVVSEYPSEVEHMFSPSCVSLLRCTGCCGDENLHCVPVETANVTMQLLKIRSGDRPSYVELTFSQHVRCECRPLREKMKPERRRPKGRGKRRREKQRPTDCHLCGDAVPRR"
  value: "binds"
- binder: "fibroblast growth factor (FGF)-6 (ligand, UniProt P10767 38-208, looked up, mature; Purchased in mature form) SPAGTRANNTLLDSRGWGTLLSRSRAGLAGEIAGVNWESGYLVGIKRQRRLYCNVGIGFHLQVLPDGRISGTHEENPYSLLEISTVERGVVSLFGVRSALFVAMNSKGRLYATPSFQEECKFRETLLPNNYNAYESDLYQGTYIALSKYGRVKRGSKVSPIMTVTHFLPRI"
  value: "no binding"

What value of binding result has been reported for the following binder? epidermal growth factor (EGF) (ligand, UniProt P01133 971-1023, looked up, mature; Purchased in mature form) NSDSECPLSHDGYCLHDGVCMYIEALDKYACNCVVGYIGERCQYRDLKWWELR
no binding

// data source = patent US20240092867A1
